Reference source for all entries: ChEMBL document CHEMBL4837256

- Assay Details: Selectivity ratio of TD50 for human HaCaT cells to MIC for Cryptococcus neoformans H99S
- Assay type: toxicity
Where a SMILES comes first, the peptide text is derived from it. [ ]: non-standard residue; d: D form. N(tridecyl)Gly = CCCCCCCCCCCCCNCC(=O)O; Gly(N-2-aminoethyl) = NCCNCC(=O)O; Gly(N-cHex) = O=C(O)CNC1CCCCC1; Nlys = NCCCCNCC(=O)O

{"Molecule": "CCCCCCCCCCCCCNCC(=O)N(CC(=O)N(CCCCN)CC(=O)N(CCN)CC(=O)N(CC(N)=O)C1CCCCC1)C1CCCCC1 (H-[N(tridecyl)Gly][Gly(N-cHex)][Nlys][Gly(N-2-aminoethyl)][Gly(N-cHex)]-NH2)", "selectivity ratio": 35}
